Entries and their measured IC50 follow.
# Tested on: MYB mRNA
# Test summary: Splicing RT-qPCR assay, MYB canonical (CJ) and alternative (AJ) junction mRNA
# Assay type: cell-based, human
# Stated conditions: Homo sapiens, 24 h, A673 or K562 cells, 24 hours compound treatment, RT-qPCR; read-out: MYB CJ (IC50, decrease in canonical junction mRNA)
Measured metric: IC50

Molecule	Measured metric	Obs value
COc1nc(NC(=O)c2ccc(N3CCNCC3)c3cn(C)nc23)cn2cc(C)nc12	IC50	< 100 nM
CCn1cc2c(N3CCNC(CF)C3)ccc(C(=O)Nc3cc(F)c4nc(C)cn4c3)c2n1 (centres unmarked)	IC50	1000 to 10000 nM
CCn1cc2c(N3CCC(NC)C3)ccc(C(=O)Nc3cc(F)c4nc(C)cn4c3)c2n1 (centres unmarked)	IC50	< 100 nM
CCn1cc2c(N3CC[C@@H](N(C)C)C3)cc(Cl)c(C(=O)Nc3cc(F)c4nc(C)cn4c3)c2n1	IC50	100 to 1000 nM
Cc1cn2cc(NC(=O)c3ccc(N4CCC(NCCO)CC4)c4cn(C)nc34)cc(F)c2n1	IC50	< 100 nM
CCn1cc2c(N3CCNC4(CC4)C3)ccc(C(=O)Nc3cc(F)c4nc(C)cn4c3)c2n1	IC50	100 to 1000 nM
Cc1cn2cc(NC(=O)c3ccc(N4CC[C@@H](NC5CC56CCOCC6)C4)c4cn(C)nc34)cc(F)c2n1 (some centres unmarked)	IC50	100 to 1000 nM
CCOc1nc(NC(=O)c2ccc(N3CC[C@H](NC)C3)c3cn(C)nc23)cn2cc(C)nc12	IC50	100 to 1000 nM
Cc1cn2cc(NC(=O)c3ccc(N4CCN(C)C(C)C4)c4cn(C)nc34)cc(F)c2n1 (centres unmarked)	IC50	< 100 nM
CN[C@@H]1CCN(c2ccc(C(=O)Nc3nc(OC)c4nc(C)cn4c3F)c3nn(C)cc23)C1	IC50	> 10000 nM
Cc1cn2cc(NC(=O)c3ccc(N4CCCC4)c4cn(C)nc34)cc(F)c2n1	IC50	1000 to 10000 nM
Cc1nc2cc(NC(=O)c3ccc(N4CCNCC4)c4cn(C)nc34)ccn2n1	IC50	> 10000 nM
Cc1cn2cc(NC(=O)c3ccc(N4C[C@@H](C)N[C@@H](C)C4)c4cn(C)nc34)nc(C)c2n1	IC50	100 to 1000 nM
CCn1cc2c(N3CC[C@@H](NC)C3)cc(O)c(C(=O)Nc3cc(F)c4nc(C)cn4c3)c2n1	IC50	100 to 1000 nM
Cc1cc2c(N3CCNCC3)ccc(C(=O)Nc3cc(F)c4nc(C)sc4c3)c2o1	IC50	100 to 1000 nM
CNC1CCN(c2ccc(C(=O)Nc3cc(F)c4nc(C)cn4c3)c3nn(C)cc23)C1 (stereo in doubt) [Compound 387]	IC50	< 100 nM
CCn1cc2c(N3CCC(N)(CC)CC3)cc(F)c(C(=O)Nc3cc(F)c4nc(C)cn4c3)c2n1	IC50	< 100 nM
Cc1cn2cc(NC(=O)c3ccc(N4CCNCC4)c4cn(Cc5cn[nH]c5)nc34)cc(F)c2n1	IC50	1000 to 10000 nM
CN[C@@H]1CCN(c2ccc(C(=O)Nc3nc(OC)c4nn(C)cc4n3)c3nn(C)cc23)C1	IC50	1000 to 10000 nM
Cc1cn2cc(NC(=O)c3ccc(N(C)C4CC(C)(C)NC(C)(C)C4)c4cc(C)oc34)cc(F)c2n1	IC50	> 10000 nM
CCn1cc2c(N3CCNCC3)ccc(C(=O)Nc3cn4cc(C)nc4c(Oc4ccccc4)n3)c2n1	IC50	100 to 1000 nM
Cc1cn2cc(NC(=O)c3ccc(N4CCC5(CCCN5)CC4)c4cn(C)nc34)cc(F)c2n1	IC50	< 100 nM
Cc1cn2cc(NC(=O)c3ccc(N4CCNCC4)c4cc(C)oc34)cc(C)c2n1	IC50	1000 to 10000 nM
Cc1cn2cc(NC(=O)c3ccc(N4CC[C@@H](NC5CCC5)C4)c4cn(C)nc34)cc(F)c2n1	IC50	< 100 nM
CCn1cc2c(N3CC[C@@H](N(C)C)C3)cc(O)c(C(=O)Nc3cc(F)c4nc(C)cn4c3)c2n1	IC50	100 to 1000 nM
CCn1cc2c(N3CC[C@@H](N(C)C)C3)ccc(C(=O)Nc3cc(F)c4nc(C)cn4c3)c2n1	IC50	100 to 1000 nM
